Entries and their pIC50 values follow.
assay.target: FXR (Homo sapiens, UniProt Q96RI1)
Construct: 5 μL of 20 nM FXR-LBD Complete Coregulator buffer G; purchased ThermoFisher PV4833
assay.name: FXR antagonist screening by TR-FRET (LanthaScreen TR-FRET FXR co-activation assay kit)
Assay type: biochemical
condition.description: Table 1.2, FXR antagonistic activity; TR-FRET with CDCA; geometric means of at least two independent runs
pIC50: −log10 of the molar value.
endpoint.name: pIC50

smiles.data	assay.value
Cc1c(C(=O)O)oc2ccc(S(=O)(=O)N(CCc3ccccc3)c3ccccc3N3CCN(C(=O)c4ncc[nH]4)CC3)cc12	5.00 to 7.00
CCOC(=O)c1c(C)c2cc(S(=O)(=O)N(CCc3ccccc3)c3ccccc3N3CCN(C(=O)c4sccc4Br)CC3)ccc2n1C	4.00 to 4.30
CCOC(=O)c1cc2ccc(S(=O)(=O)N(CCc3ccccc3)c3ccccc3N3CCN(C(=O)c4sccc4Br)CC3)cc2s1	4.00 to 4.30
Cc1c(C(=O)O)oc2ccc(S(=O)(=O)N(CCc3ccccc3)c3ccccc3N3CC4(CCN(C(=O)c5sccc5Br)CC4)C3)cc12	5.00 to 7.00
Cc1c(C(=O)O)oc2ccc(S(=O)(=O)N(CCc3ccccc3)c3ccccc3N3CCN(C(=O)c4ccno4)CC3)cc12	5.00 to 7.00
CCOC(=O)c1oc2ccc(S(=O)(=O)N(CCc3ccccc3)c3ccccc3N3CCN(C(=O)c4cccnc4)CC3)cc2c1C	4.00 to 4.30

---

assay.target: FXR (Homo sapiens)
Construct: 5 μL of 20 nM FXR-LBD Complete Coregulator buffer G; purchased ThermoFisher PV4833
assay.name: FXR antagonist screening by TR-FRET (LanthaScreen TR-FRET FXR co-activation assay kit)
Assay type: biochemical
condition.description: Table 1.2, FXR antagonistic activity; TR-FRET with CDCA; geometric means of at least two independent runs

compound	assay.target	IC50
CCOC(=O)c1sc2ccc(S(=O)(=O)Nc3ccccc3N3CCN(C(=O)c4sccc4Br)CC3)cc2c1C	FXR (Homo sapiens)	50 to 100 µM
Cc1c(C(=O)O)oc2ccc(S(=O)(=O)N(CCc3ccccc3)c3ccccc3N3CCC4(CCN(C(=O)c5sccc5Br)C4)CC3)cc12	FXR (Homo sapiens)	0.1 to 10 µM
CCOC(=O)c1oc2ccc(S(=O)(=O)N(CCc3ccccc3)c3ccccc3N3CCN(C(=O)c4cnco4)CC3)cc2c1C	FXR (Homo sapiens)	50 to 100 µM
CC(=O)c1ccc(C(=O)N2CCN(c3ccccc3N(CCc3ccccc3)S(=O)(=O)c3ccc4oc(C(=O)O)c(C)c4c3)CC2)cc1	FXR (Homo sapiens)	0.1 to 10 µM
CCOC(=O)c1oc2ccc(S(=O)(=O)N(CCc3ccccc3)c3ccccc3N3CCN(C(=O)c4sccc4Br)C(C)C3)cc2c1C (stereo not drawn)	FXR (Homo sapiens)	50 to 100 µM
CCOC(=O)c1sc2ccc(S(=O)(=O)N(CCc3ccccc3)c3ccccc3N3CCN(C(=O)c4sccc4Br)CC3)cc2c1C	FXR (Homo sapiens)	50 to 100 µM

---

assay.target: FXR (Homo sapiens, UniProt Q96RI1)
Construct: 5 μL of 20 nM FXR-LBD Complete Coregulator buffer G; purchased ThermoFisher PV4833
Sequence (Q96RI1 262-486 limits assumed): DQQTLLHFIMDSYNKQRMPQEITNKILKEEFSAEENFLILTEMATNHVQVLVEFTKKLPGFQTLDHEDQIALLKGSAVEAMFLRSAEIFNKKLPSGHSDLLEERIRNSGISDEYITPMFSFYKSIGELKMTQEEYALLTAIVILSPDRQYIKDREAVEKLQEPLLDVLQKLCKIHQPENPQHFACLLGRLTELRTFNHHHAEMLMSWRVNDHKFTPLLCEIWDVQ
assay.name: FXR antagonist screening by TR-FRET (LanthaScreen TR-FRET FXR co-activation assay kit)
Format: biochemical
condition.description: Table 1.2, FXR antagonistic activity; TR-FRET with CDCA; geometric means of at least two independent runs
pIC50: −log10 of the molar value.

molecule	pIC50
Cc1c(C(=O)O)sc2ccc(S(=O)(=O)N(CCc3cccs3)c3ccccc3N3CCN(C(=O)c4sccc4Br)CC3)cc12 [Example F27-S183]	5.00 to 7.00
O=C(O)c1[nH]c2ccc(S(=O)(=O)N(CCc3ccccc3)c3ccccc3N3CCN(C(=O)c4sccc4Br)CC3)cc2c1Cl [Example F27-S161]	5.00 to 7.00
CCOC(=O)c1sc2ccc(S(=O)(=O)N(CCc3ccc(C#N)cc3)c3ccccc3N3CCN(C(=O)c4sccc4Br)CC3)cc2c1C [Example M10-168]	4.00 to 4.30
